MEASURED TARGET: Sterol O-acyltransferase 1 (Homo sapiens)
Sequence (P35610 whole entry): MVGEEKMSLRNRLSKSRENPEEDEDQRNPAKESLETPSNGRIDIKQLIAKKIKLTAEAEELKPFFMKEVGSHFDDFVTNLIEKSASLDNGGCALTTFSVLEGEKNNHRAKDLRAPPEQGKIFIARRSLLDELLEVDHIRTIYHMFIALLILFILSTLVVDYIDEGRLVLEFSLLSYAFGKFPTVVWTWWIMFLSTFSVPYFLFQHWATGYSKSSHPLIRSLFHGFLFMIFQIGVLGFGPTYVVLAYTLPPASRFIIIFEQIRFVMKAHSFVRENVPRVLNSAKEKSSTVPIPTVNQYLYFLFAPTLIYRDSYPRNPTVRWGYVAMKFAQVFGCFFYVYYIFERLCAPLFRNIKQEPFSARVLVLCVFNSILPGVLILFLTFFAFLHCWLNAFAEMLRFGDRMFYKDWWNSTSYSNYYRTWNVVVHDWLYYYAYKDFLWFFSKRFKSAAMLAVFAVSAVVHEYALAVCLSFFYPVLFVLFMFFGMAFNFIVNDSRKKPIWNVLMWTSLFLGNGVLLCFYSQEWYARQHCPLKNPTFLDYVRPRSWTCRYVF
ASSAY TEXT: In vitro inhibitory concentration against acyl coenzyme A:cholesterol acyltransferase derived from smooth muscle cells from thoracic aorta of monkeys
Recorded pIC50, one value per entry.
By convention, pIC50 is the negative base-10 log of a molar concentration.

Guide cases for pIC50, answers given:
- COMPOUND: "CC(C)(C)CCN(Cc1cccs1)C(=O)Nc1c(Cl)cc(Cl)cc1Cl"
  MEASURED TARGET: "Sterol O-acyltransferase 1 (Homo sapiens)"
  pIC50: 5.58
- COMPOUND: "CCCCN(Cc1ccccc1)C(=O)Nc1ccc(C)cc1C"
  MEASURED TARGET: "Sterol O-acyltransferase 1 (Homo sapiens)"
  pIC50: 5.74
- COMPOUND: "O=C(Nc1cccc(Cl)c1)N(Cc1ccccc1)Cc1ccccc1"
  MEASURED TARGET: "Sterol O-acyltransferase 1 (Homo sapiens)"
  pIC50: 4.40
- COMPOUND: "Cc1c(Cl)cccc1NC(=O)N(CCC(C)(C)C)Cc1cccs1"
  MEASURED TARGET: "Sterol O-acyltransferase 1 (Homo sapiens)"
  pIC50: 5.20
- COMPOUND: "CCCCN(CCCC)C(=O)Nc1ccc(C)c(Cl)c1"
  MEASURED TARGET: "Sterol O-acyltransferase 1 (Homo sapiens)"
  pIC50: 4.89
- COMPOUND: "CCCCN(CCCC)C(=O)Nc1cccc(C)c1"
  MEASURED TARGET: "Sterol O-acyltransferase 1 (Homo sapiens)"
  pIC50: 4.62
- COMPOUND: "CC(C)(C)CCN(Cc1cccs1)C(=O)Nc1ccc(F)cc1F"
  MEASURED TARGET: "Sterol O-acyltransferase 1 (Homo sapiens)"
  pIC50: 4.77

The record that follows has no pIC50 shown yet.
Task: Observed pIC50 on Sterol O-acyltransferase 1 (Homo sapiens) for CCCCN(Cc1ccccc1)C(=O)Nc1c(Cl)cc(Cl)cc1Cl , please.
Output: 5.44
